- Assay method text: Hepatocyte stability, human
- Format: in vitro ADME
- Measurement setup: human, cryopreserved human hepatocytes; after 60 min in HH, 1 μM; read-out: hepatocytic stability human, CLint
Readings of hepatocyte CLint at 1 h, 1 µM for the listed compounds
Just the number please, in µL/min/1e6 cells, no unit attached.

input: For CCCc1nc2c(C)cc(-c3nc4ccccc4n3C)cc2n1Cc1ccc(-c2ccccc2C(=O)OC)cc1 , what is its reported hepatocyte CLint at 1 h, 1 µM?
output: 75.2

input: For CCCc1nc2c(C)cc(-c3nc4ccccc4n3C)cc2n1Cc1ccc(-c2ccccc2C(N)=O)cc1 , what is its reported hepatocyte CLint at 1 h, 1 µM?
output: 13.8

* * *

- System: K562-R cells
- Assay method text: Chemosensitizing: metabolic activity of K562-R cells cotreated with imatinib (modified MTT assay)
- Type: cell-based, human
- Measurement setup: compound 10 μM + imatinib 1 μM, 72 h
Metric: metabolic activity of K562-R cells, combination with imatinib

>  <Smiles>
CCCc1nc2ccccc2n1Cc1ccc(-c2ccc(C(N)=O)cc2)cc1

>  <Measured on>
K562-R cells

>  <Observed value>
8–24%

$$$$
>  <Smiles>
CCCc1nc2ccccc2n1Cc1cccc(C(=O)OC)c1

>  <Measured on>
K562-R cells

>  <Observed value>
34–58%

$$$$
>  <Smiles>
CCCc1nc2ccccc2n1Cc1ccc(-c2cccc(C(=O)OC)c2)cc1

>  <Measured on>
K562-R cells

>  <Observed value>
34–58%

$$$$
>  <Smiles>
CCCc1nc2ccccc2n1Cc1ccc(C(N)=O)cc1

>  <Measured on>
K562-R cells

>  <Observed value>
could not be increased

$$$$
>  <Smiles>
CCCc1nc2ccccc2n1Cc1ccccc1C(N)=O

>  <Measured on>
K562-R cells

>  <Observed value>
could not be increased

$$$$
>  <Smiles>
CCCc1nc2ccccc2n1Cc1cccc(C(N)=O)c1

>  <Measured on>
K562-R cells

>  <Observed value>
could not be increased

$$$$
>  <Smiles>
CCCc1nc2ccccc2n1Cc1ccc(-c2ccccc2C(=O)OC)cc1

>  <Measured on>
K562-R cells

>  <Observed value>
8–24%

$$$$
>  <Smiles>
CCCc1nc2ccccc2n1Cc1ccccc1C(=O)OC

>  <Measured on>
K562-R cells

>  <Observed value>
34–58%

$$$$

input: Which metabolic activity of K562-R cells, combination with imatinib is reported with K562-R cells for this entry: CCCc1nc2ccccc2n1Cc1ccc(-c2ccc(C(=O)OC)cc2)cc1 ?
output: 8–24%

input: Which metabolic activity of K562-R cells, combination with imatinib is reported with K562-R cells for this entry: CCCc1nc2c(C)cc(-c3nc4ccccc4n3C)cc2n1Cc1ccc(-c2ccccc2C(=O)O)cc1 ?
output: 34–58%

* * *

- Assay method text: Turbidimetric aqueous solubility
- Assay type: physicochemical
- Measurement setup: phosphate buffered saline, estimated precipitation range, PBS pH 7.4, 37 °C
Readings of solubility at 2 h for the listed molecules

>  <Molecule>
CCCc1nc2c(C)cc(-c3nc4ccccc4n3C)cc2n1Cc1ccc(-c2ccccc2C(=O)OC)cc1 [7b]

>  <Metric>
solubility at 2 h

>  <Observed value>
< 6.5 µM

$$$$

Next:
input: For CCCc1nc2c(C)cc(-c3nc4ccccc4n3C)cc2n1Cc1ccc(-c2ccccc2C(N)=O)cc1 [7c] , what is its reported solubility at 2 h?
output: < 6.5 µM

* * *

- Assay method text: Hepatocyte stability, mouse
- Format: in vitro ADME
- Measurement setup: mouse, cryopreserved mouse hepatocytes; after 60 min in MH, 1 μM; read-out: hepatocytic stability mouse, CLint
Metric: hepatocyte CLint at 1 h, 1 µM (µL/min/1e6 cells)
Just the number please, in µL/min/1e6 cells, no unit attached.

>  <Smiles>
CCCc1nc2c(C)cc(-c3nc4ccccc4n3C)cc2n1Cc1ccc(-c2ccccc2C(N)=O)cc1

>  <hepatocyte CLint at 1 h, 1 µM / µL/min/1e6 cells>
30.9

$$$$

input: For CCCc1nc2c(C)cc(-c3nc4ccccc4n3C)cc2n1Cc1ccc(-c2ccccc2C(=O)OC)cc1 , what is its reported hepatocyte CLint at 1 h, 1 µM?
output: 101

* * *

- Assay method text: Hepatocyte stability, human
- Format: in vitro ADME
- Measurement setup: human, cryopreserved human hepatocytes; HH; read-out: hepatocytic stability human t1/2
Metric: half-life at 1 h, 1 µM (min)
Just the number please, in min, no unit attached.

>  <Smiles>
CCCc1nc2c(C)cc(-c3nc4ccccc4n3C)cc2n1Cc1ccc(-c2ccccc2C(=O)OC)cc1

>  <half-life at 1 h, 1 µM / min>
18.4

$$$$

Next:
input: For CCCc1nc2c(C)cc(-c3nc4ccccc4n3C)cc2n1Cc1ccc(-c2ccccc2C(N)=O)cc1 , what is its reported half-life at 1 h, 1 µM?
output: 100

* * *

- Tested on: K562-R cells
- Assay method text: Chemosensitizing: metabolic activity of K562-R cells cotreated with imatinib (modified MTT assay)
- Assay type: cell-based, human
- Measurement setup: compound 10 μM + imatinib 1 μM, 72 h
Metric: metabolic activity of K562-R cells, combination with imatinib

# example entries with known answers
>  <Compound>
CCCc1nc2c(C)cc(-c3nc4ccccc4n3C)cc2n1Cc1ccc(-c2ccccc2C(=O)OC)cc1 [7b]

>  <Observed value>
8–24%

$$$$
>  <Compound>
CCCc1nc2c(C)cc(-c3nc4ccccc4n3C)cc2n1Cc1ccc(-c2ccccc2C(N)=O)cc1 [7c]

>  <Observed value>
8–24%

$$$$

Next:
input: For CCCc1nc2ccccc2n1Cc1ccc(C(=O)OC)cc1 [3b] , what is its reported metabolic activity of K562-R cells, combination with imatinib?
output: 34–58%
